Would you mind telling me the reported pIC50 of each entry?
Target: T1, human cholecystokinin-1 receptor (human), P32238
T1 chain: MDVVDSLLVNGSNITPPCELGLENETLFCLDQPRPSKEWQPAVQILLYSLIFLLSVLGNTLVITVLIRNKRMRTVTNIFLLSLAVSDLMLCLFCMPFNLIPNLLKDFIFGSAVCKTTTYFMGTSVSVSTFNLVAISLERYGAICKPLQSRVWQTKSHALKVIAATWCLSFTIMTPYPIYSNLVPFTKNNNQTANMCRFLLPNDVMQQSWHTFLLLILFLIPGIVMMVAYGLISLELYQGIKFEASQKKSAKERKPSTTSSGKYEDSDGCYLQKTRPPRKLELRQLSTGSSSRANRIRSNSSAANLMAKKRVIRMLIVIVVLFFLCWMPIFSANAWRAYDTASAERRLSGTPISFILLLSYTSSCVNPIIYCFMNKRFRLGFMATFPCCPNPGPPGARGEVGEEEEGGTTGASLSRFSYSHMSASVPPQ
Test: SPA competition vs [125I]-CCK-8s, membranes
Starred links: 1 amine or outer side, 2 acyl side, 3 side chain; linkers in the order of their positions; H or OH if unused. Non-standard residues stand in square brackets, D forms with d. No end group written: not given here. *: point of attachment. sY = N[C@@H](Cc1ccc(OS(=O)(=O)O)cc1)C(=O)O; C18 diacid = O=C(O)CCCCCCCCCCCCCCCCC(=O)*; γGlu = O=C(O)[C@H](CCC(=O)[*:2])N[*:1]; NMeF = CN[C@@H](Cc1ccccc1)C(=O)O; AEEA = NCCOCCOCC(=O)O
Numbers only, as −log10 of the molar value.

// known answers, use as guide
{C18 diacid-γGlu-AEEA-AEEA}-D[sY]LGWI[DMeAsp][NMeF]-NH2	10.00
D[sY]LGWV[DMeAsp][NMeF]-NH2 [Asp-sTyr-Leu-Gly-Trp-Val-DMeAsp-MePhe-amide]	9.21
{C18 diacid-γGlu-AEEA-AEEA}-D[sY]LGWQ[DMeAsp][NMeF]-NH2	10.08

Dear colleague, could you send me pIC50 for each of the items below? Thanks.
1. D[sY]LGWI[DMeAsp][NMeF]-NH2 [Asp-sTyr-Leu-Gly-Trp-Ile-DMeAsp-MePhe-amide]
2. D[sY]LGWL[DMeAsp][NMeF]-NH2 [Asp-sTyr-Leu-Gly-Trp-Leu-DMeAsp-MePhe-amide]

[reply]
1: 10.11; 2: 10.38
